Assay: Solubility in PBS
Type: physicochemical
Conditions: 37 °C, pH 7.4, aqueous buffer, kinetic from dmso stock
quantity_kind: solubility at 4 h (µM)
Answer format: numeric, µM implied, no suffix.

Task: Reported solubility at 4 h for CCOc1ccc(S(=O)(=O)Nc2cc(CC(=O)N3CCCC3)c(NS(=O)(=O)c3ccc(OCC)cc3)c3ccccc23)cc1 [Compound 5i] : what is it?
Result: 2.65

* * *

Assay: Metabolic stability in mouse liver microsomes
Type: in vitro ADME
Conditions: pH 7.4
quantity_kind: CLint scaled at 1 μM (mL/min/kg)
// note: answer is a bare numeric in mL/min/kg

Task: Which measured CLint scaled at 1 μM value corresponds to CCOc1ccc(S(=O)(=O)Nc2cc(CC(=O)N3CCCC3)c(NS(=O)(=O)c3ccc(OCC)cc3)c3ccccc23)cc1 ?
Result: 2290

* * *

Assay: Parallel artificial membrane permeability assay
Type: in vitro ADME
Settings: PAMPA
Give Papp at 4 h for every item shown.
Numbers only; they are read as ×10⁻⁶ cm/s.

Task: Fill in the blank: the reported Papp at 4 h of COCCc1ccc(OCC(O)CNC(C)C)cc1 (stereo not drawn) [metoprolol] is ____.
Result: 1.85

Task: // Papp at 4 h lookup, key: Cc1cc(=O)n(-c2ccccc2)n1C [antipyrine]
Result: 23.1

Task: For CCOc1ccc(S(=O)(=O)Nc2cc(CC(=O)N3CCCC3)c(NS(=O)(=O)c3ccc(OCC)cc3)c3ccccc23)cc1 [Compound 5i] , what is its reported Papp at 4 h?
Result: 3.06

* * *

Assay: Protein binding ratio
Format: in vitro ADME
Conditions: bovine, 10% FBS (fetal bovine serum), pH 7.4
quantity_kind: fraction unbound at 6 h, 1 μM

Task: // query fraction unbound at 6 h, 1 μM value for entry CCOc1ccc(S(=O)(=O)Nc2cc(CC(=O)N3CCCC3)c(NS(=O)(=O)c3ccc(OCC)cc3)c3ccccc23)cc1 [Compound 5i]
Result: < 0.0342
